Biological target: biotin-NPY (N-terminal Biotin-Ahx-; C-terminal amide (-NH2))
Experiment: BLI (ForteBio Blitz), biotinylated peptide on streptavidin sensor, scFv in solution
Catalogue of binders with associated Kd
Numeric only. Scale: nM

Some solved cases for reference:
scFv-7 (human) (scFv, Human scFv from the Garvan-2 phage library; Whole entry used as named) scFv: EVQLLESGGGLVQPGGSLRLSCAASGFRFDYEDMGWVRQAPGKGLEWVSAIASDGDSTYYADSVKGRFTISRDNSKNTLYLQMNSLRAEDTAVYYCAKIYYDGAYRVFDYWGQGTLVTVSSGGGGSGGGGSGGGGSTDIQMTQSPSSLSASVGDRVTITCRASQSISSYLNWYQQKPGKAPKLLIYSASYLQSGVPSRFSGSGSGTDFTLTISSLQPEDFATYYCQQYSMLPTTFGQGTKVEIKR; 9250
h5E12 IGHV1-46/DPK9 scFv (humanized) (scFv, Humanized 5E12 scFv) scFv: QVQLVQSGAEVKKPGASVKVSCKASGYTFTNYWMHWVRQAPGQGLEWMGNIDPSNGGTNYNEKFKSRVTMTRDTSTSTVYMELSSLRSEDTAVYYCASFAYWGQGTLVTVSSGGGGSGGGGSGGGGSTDIQMTQSPSSLSASVGDRVTITCRASGNIHNYLAWYQQKPGKAPKLLIYNAKTLADGVPSRFSGSGSGTDFTLTISSLQPEDFATYYCQHFWSPPFTFGQGTKVEIKR; 905
mouse 5E12-B7 scFv PSE2 (scFv, V domains shown, not shown: small tags and cut ends, also called 5E12 (mouse); mouse 5E12 PSE2) VH: QVQLQHPGTEVVKPGASVKLSCKASGYTFTNYWMHWVKQRPGQGLEWIGNIDPSNGGTNYNEKFKSKATLTVDKSSSTAYMQLSSLTSEDSAVYYCASFAYWGQGTLVTVSS VL: DIQMTQSPASLSASVGETVTITCRASGNIHNYLAWYQQKQGKSPQLLVYNAKTLADGVPSRFSGSGSGTQYSLKISSLRPEDFGSYYCQHFWSPPFTFGSGTKLEIK; 22.1
scFv-6 (human) (scFv, Human scFv from the Garvan-2 phage library; Whole entry used as named) scFv: EVQLLESGGGLVQPGGSLRLSCAASGFRFSAEDMGWVRQAPGKGLEWVSSIASAGASTYYADSVKGRFTISRDNSKNTLYLQMNSLRAEDTAVYYCAKHMYSYAIFDYWGQGTLVTVSSGGGGSGGGGSGGGGSTDIQMTQSPSSLSASVGDRVTITCRASQDIADALNWYQQKPGKAPKLLIYAASSLQSGVPSKFSGSGSGTDFTLTISSLQPEDFATYYCQQGYVHPPTFGQGTKVEIKR; 177

Query (binder): h5E12 IGHV1-69/DPK9 scFv (humanized) (scFv, Humanized 5E12 scFv) scFv: QVQLVQSGAEVKKPGSSVKVSCKASGYTFTNYWMHWVRQAPGQGLEWMGNIDPSNGGTNYNEKFKSRVTITADESTSTAYMELSSLRSEDTAVYYCASFAYWGQGTLVTVSSGGGGSGGGGSGGGGSTDIQMTQSPSSLSASVGDRVTITCRASGNIHNYLAWYQQKPGKAPKLLIYNAKTLADGVPSRFSGSGSGTDFTLTISSLQPEDFATYYCQHFWSPPFTFGQGTKVEIKR ; field requested: Kd
142
